test system: Streptococcus pneumoniae; assay: Antibacterial activity against Streptococcus pneumoniae 49619 by NCCLS method; type: functional
MEASUREMENT_NAME: MIC (µg/mL)

See these solved cases before continuing.
>  <GIVEN_SMILES>
C=CCN(C)[C@H]1C[C@@H](C)O[C@@H](O[C@@H]2[C@@H](C)[C@H](OC(=O)Cc3ccccn3)[C@@H](C)C(=O)O[C@H](CC)[C@@]3(C)OC(=O)N(CCCCn4cnc5cnccc54)[C@@H]3[C@@H](C)C(=O)[C@H](C)C[C@@]2(C)OC)[C@@H]1O

>  <MIC (µg/mL)>
0.03

$$$$
>  <GIVEN_SMILES>
C=CCN(C)[C@H]1C[C@@H](C)O[C@@H](O[C@@H]2[C@@H](C)[C@H](OC(=O)Cc3ccccn3)[C@@H](C)C(=O)O[C@H](CC)[C@@]3(C)OC(=O)N(CCCCn4cnc(-c5cncnc5)c4)[C@@H]3[C@@H](C)C(=O)[C@H](C)C[C@@]2(C)OC)[C@@H]1O

>  <MIC (µg/mL)>
0.03

$$$$
>  <GIVEN_SMILES>
C=CCN(C)[C@H]1C[C@@H](C)O[C@@H](O[C@@H]2[C@@H](C)[C@H](OC(=O)Cc3ccccn3)[C@@H](C)C(=O)O[C@H](CC)[C@@]3(C)OC(=O)N(CCCCn4ccc5cccnc54)[C@@H]3[C@@H](C)C(=O)[C@H](C)C[C@@]2(C)OC)[C@@H]1O

>  <MIC (µg/mL)>
0.03

$$$$
>  <GIVEN_SMILES>
C=CCN(C)[C@H]1C[C@@H](C)O[C@@H](O[C@@H]2[C@@H](C)[C@H](OC(=O)Cc3ccccn3)[C@@H](C)C(=O)O[C@H](CC)[C@@]3(C)OC(=O)N(CCCCn4cnc(-c5ccoc5)c4)[C@@H]3[C@@H](C)C(=O)[C@H](C)C[C@@]2(C)OC)[C@@H]1O

>  <MIC (µg/mL)>
0.015

$$$$

1 = C=CCN(C)[C@H]1C[C@@H](C)O[C@@H](O[C@@H]2[C@@H](C)[C@H](OC(=O)Cc3cccnc3)[C@@H](C)C(=O)O[C@H](CC)[C@@]3(C)OC(=O)N(CCCCn4cnc(-c5cccnc5)c4)[C@@H]3[C@@H](C)C(=O)[C@H](C)C[C@@]2(C)OC)[C@@H]1O
2 = C=CCN(C)[C@H]1C[C@@H](C)O[C@@H](O[C@@H]2[C@@H](C)[C@H](OC(=O)Cc3ccccn3)[C@@H](C)C(=O)O[C@H](CC)[C@@]3(C)OC(=O)N[C@@H]3[C@@H](C)C(=O)[C@H](C)C[C@@]2(C)OC)[C@@H]1O
Enquiry: When their MIC values are compared, which is larger, 1 or 2 ? Kindly give the label for the entry you pick.
Return: 1

I = C=CCN(C)[C@H]1C[C@@H](C)O[C@@H](O[C@@H]2[C@@H](C)[C@H](OC(=O)Cc3ccccn3)[C@@H](C)C(=O)O[C@H](CC)[C@@]3(C)OC(=O)N(CCCCn4cnc5cccnc54)[C@@H]3[C@@H](C)C(=O)[C@H](C)C[C@@]2(C)OC)[C@@H]1O
II = C=CCN(C)[C@H]1C[C@@H](C)O[C@@H](O[C@@H]2[C@@H](C)[C@H](OC(=O)Cc3cccnc3)[C@@H](C)C(=O)O[C@H](CC)[C@@]3(C)OC(=O)N(CCCCn4cnc(-c5ccc(N)nc5)c4)[C@@H]3[C@@H](C)C(=O)[C@H](C)C[C@@]2(C)OC)[C@@H]1O
Enquiry: Field: lower MIC | Options: I / II Kindly give the label for the entry you pick.
Return: I
(I: 0.06 µg/mL, II: 0.125 µg/mL)

###

Below, each entry is listed with its recorded MIC.
system: Streptococcus pneumoniae; experiment: Antibacterial activity against telethromycin-resistant Streptococcus pneumoniae 3390 expressing erm gene by NCCLS method; format: functional
Give just the numeric value; µg/mL need not be written.

>  <GIVEN_SMILES>
C=CCN(C)[C@H]1C[C@@H](C)O[C@@H](O[C@@H]2[C@@H](C)[C@H](OC(=O)Cc3ccccn3)[C@@H](C)C(=O)O[C@H](CC)[C@@]3(C)OC(=O)N(CCCCn4cnc(-c5ccco5)c4)[C@@H]3[C@@H](C)C(=O)[C@H](C)C[C@@]2(C)OC)[C@@H]1O

>  <TARGET_OR_SYSTEM>
Streptococcus pneumoniae

>  <MIC, µg/mL>
0.5

$$$$
>  <GIVEN_SMILES>
C=CCN(C)[C@H]1C[C@@H](C)O[C@@H](O[C@@H]2[C@@H](C)[C@H](OC(=O)Cc3cccnc3)[C@@H](C)C(=O)O[C@H](CC)[C@@]3(C)OC(=O)N(CCCCn4cnc5ncccc54)[C@@H]3[C@@H](C)C(=O)[C@H](C)C[C@@]2(C)OC)[C@@H]1O

>  <TARGET_OR_SYSTEM>
Streptococcus pneumoniae

>  <MIC, µg/mL>
0.25

$$$$
>  <GIVEN_SMILES>
C=CCN(C)[C@H]1C[C@@H](C)O[C@@H](O[C@@H]2[C@@H](C)[C@H](OC(=O)Cc3ccccn3)[C@@H](C)C(=O)O[C@H](CC)[C@@]3(C)OC(=O)N(CCCCn4ccc5cccnc54)[C@@H]3[C@@H](C)C(=O)[C@H](C)C[C@@]2(C)OC)[C@@H]1O

>  <TARGET_OR_SYSTEM>
Streptococcus pneumoniae

>  <MIC, µg/mL>
0.25

$$$$
>  <GIVEN_SMILES>
CC[C@H]1OC(=O)[C@H](C)C(=O)[C@H](C)[C@@H](O[C@@H]2O[C@H](C)C[C@H](N(C)C)[C@H]2O)[C@](C)(OC)C[C@@H](C)C(=O)[C@H](C)[C@H]2N(CCCCn3cnc(-c4cccnc4)c3)C(=O)O[C@]12C

>  <TARGET_OR_SYSTEM>
Streptococcus pneumoniae

>  <MIC, µg/mL>
8

$$$$
>  <GIVEN_SMILES>
C=CCN(C)[C@H]1C[C@@H](C)O[C@@H](O[C@@H]2[C@@H](C)[C@H](OC(=O)Cc3ccccn3)[C@@H](C)C(=O)O[C@H](CC)[C@@]3(C)OC(=O)N(CCCCn4cncc4-c4ccco4)[C@@H]3[C@@H](C)C(=O)[C@H](C)C[C@@]2(C)OC)[C@@H]1O

>  <TARGET_OR_SYSTEM>
Streptococcus pneumoniae

>  <MIC, µg/mL>
0.25

$$$$

--- query ---
Enquiry: Consider the molecule shown here: C=CCN(C)[C@H]1C[C@@H](C)O[C@@H](O[C@@H]2[C@@H](C)[C@H](OC(=O)Cc3ccccn3)[C@@H](C)C(=O)O[C@H](CC)[C@@]3(C)OC(=O)N(CCCCn4cnc(-c5ccnc(N)c5)c4)[C@@H]3[C@@H](C)C(=O)[C@H](C)C[C@@]2(C)OC)[C@@H]1O What is its recorded MIC?
Return: 0.125

###

tested on: Streptococcus pneumoniae; assay: Antibacterial activity against Streptococcus pneumoniae 49619 by NCCLS method; format: functional
MEASUREMENT_NAME: MIC (µg/mL)

See these solved cases before continuing.
>  <GIVEN_SMILES>
CC[C@H]1OC(=O)[C@H](C)[C@@H](OC(=O)Cc2ccccn2)[C@H](C)[C@@H](O[C@@H]2O[C@H](C)C[C@H](N(C)CC)[C@H]2O)[C@](C)(OC)C[C@@H](C)C(=O)[C@H](C)[C@H]2N(CCCCn3cnc(-c4cccnc4)c3)C(=O)O[C@]12C

>  <TARGET_OR_SYSTEM>
Streptococcus pneumoniae

>  <MEASUREMENT_NAME>
MIC

>  <MEASUREMENT_UNIT>
µg/mL

>  <NUMBER>
0.015

$$$$
>  <GIVEN_SMILES>
C=CCN(C)[C@H]1C[C@@H](C)O[C@@H](O[C@@H]2[C@@H](C)[C@H](OC(=O)Cc3ccccn3)[C@@H](C)C(=O)O[C@H](CC)[C@@]3(C)OC(=O)N(CCCCn4cnc5ccncc54)[C@@H]3[C@@H](C)C(=O)[C@H](C)C[C@@]2(C)OC)[C@@H]1O

>  <TARGET_OR_SYSTEM>
Streptococcus pneumoniae

>  <MEASUREMENT_NAME>
MIC

>  <MEASUREMENT_UNIT>
µg/mL

>  <NUMBER>
0.125

$$$$

P = CC[C@H]1OC(=O)[C@H](C)[C@@H](OC(=O)Cc2ccccn2)[C@H](C)[C@@H](O[C@@H]2O[C@H](C)C[C@H](N(C)CC)[C@H]2O)[C@](C)(OC)C[C@@H](C)C(=O)[C@H](C)[C@H]2N(CCCCn3cnc(-c4ccc(N)nc4)c3)C(=O)O[C@]12C
Q = C=CCN(C)[C@H]1C[C@@H](C)O[C@@H](O[C@@H]2[C@@H](C)[C@H](OC(=O)Cc3ccccn3)[C@@H](C)C(=O)O[C@H](CC)[C@@]3(C)OC(=O)N(CCCCn4cnc(-c5cnc(N)nc5)c4)[C@@H]3[C@@H](C)C(=O)[C@H](C)C[C@@]2(C)OC)[C@@H]1O
Enquiry: Field: lower MIC | Options: P / Q Kindly give the label for the entry you pick.
Return: Q
